Molecular target: 15-PGDH/HPGD (Homo sapiens, UniProt P15428)
Sequence (P15428 1-266): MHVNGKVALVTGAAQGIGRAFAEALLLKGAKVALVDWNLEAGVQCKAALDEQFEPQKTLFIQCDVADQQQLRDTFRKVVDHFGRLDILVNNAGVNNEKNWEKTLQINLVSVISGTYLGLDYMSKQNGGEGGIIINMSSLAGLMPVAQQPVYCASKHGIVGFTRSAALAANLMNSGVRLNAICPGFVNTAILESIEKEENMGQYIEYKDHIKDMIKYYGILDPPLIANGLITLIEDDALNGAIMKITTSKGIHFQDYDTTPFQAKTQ
Assay: hPGDH inhibitor screening biochemical assay
Conditions: 10 nM enzyme, 15 μM PGE2, 0.25 mM NAD, fluorescence ex/em 340/485 nm
What IC50 was measured for each of the following?

Identify measured IC50 associated with CCO[C@H]1CCN(C(=O)c2cnc3c(cnn3-c3ccc(-c4nnc[nH]4)cc3)c2)C1
0.1 to 1 µM

Identify measured IC50 associated with Cc1nc2cc(C(=O)N3CCC(F)(F)CC3)cnc2n1-c1ccc(C(=O)O)cc1
< 0.1 µM

Identify measured IC50 associated with O=C(O)c1ccc(-n2cnc3cc(C(=O)N4CCC(F)(F)CC4)ccc32)cc1
< 0.1 µM

Identify measured IC50 associated with O=C(c1cnc2c(cnn2-c2ccc(-c3nnc[nH]3)c(F)c2)c1)N1CCC(F)(F)CC1
< 0.1 µM

Identify measured IC50 associated with COc1cc(-n2ncc3cc(C(=O)N4CCC(F)(F)CC4)cnc32)ccc1-c1nnc[nH]1
< 0.1 µM

Identify measured IC50 associated with O=C(c1cnc2c(c1)nnn2-c1ccc(-c2ncn[nH]2)nc1)N1CCC(F)(F)CC1
< 0.1 µM

Identify measured IC50 associated with Cc1cc(-n2ncc3cc(C(=O)N4CCC(F)(F)CC4)cnc32)ccc1-c1nnc[nH]1
< 0.1 µM

Identify measured IC50 associated with O=C(c1cnc2c(cnn2-c2ccc(-c3nnc[nH]3)c(F)c2)c1)N1CC[S+]([O-])CC1
0.1 to 1 µM

Identify measured IC50 associated with CC(F)(F)[C@H]1CCN(C(=O)c2cnc3c(cnn3-c3ccc(-c4nnc[nH]4)cc3)c2)C1
< 0.1 µM

Identify measured IC50 associated with O=C(O)c1ccc(-n2ncc3cc(C(=O)N4CCC(F)(F)CC4)cnc32)cc1
< 0.1 µM

Identify measured IC50 associated with O=C(c1cnc2c(cnn2-c2ccc(-c3ncn[nH]3)cc2)c1)N1CCC(F)(F)CC1
< 0.1 µM

Identify measured IC50 associated with O=C(c1ccc2c(c1)ncn2-c1ccc(-c2ncn[nH]2)nc1)N1CCC(F)(F)CC1
0.1 to 1 µM

Identify measured IC50 associated with C[C@H]1CCCN(C(=O)c2cnc3c(cnn3-c3ccc(N4CCNC4=O)nc3)c2)C1
< 0.1 µM

Identify measured IC50 associated with C[C@H]1CCCN(C(=O)c2cnc3c(cnn3-c3ccc(N4CCOC4=O)nc3)c2)C1
< 0.1 µM
